Hello, the source for this data is patent US20090036437A1, in case you need it.

- System: Rat L6 cell (rat skeletal myoblast cell)
- test.summary: in vitro growth-inhibiting assay of rat L6 cells
- Type: cell-based
- assay.conditions: Table 3; 72 h, Alamar Blue; read-out: 50% growth-inhibiting concentration (nM) cytotoxicity L6
Recorded log10(EC50) by entry
readout.kind: log10(EC50) (log10 of the value in nM)

{"columns": ["compound", "log10(EC50)"],
 "data": [
  ["CN(C)c1ccc2nc3ccc(=[N+](C)C)cc-3oc2c1.CN(C)c1ccc2nc3ccc(=[N+](C)C)cc-3oc2c1.[Cl-].[Cl-].[Cl][Zn][Cl] [Compound A-3]", 3.95],
  ["C[N+](C)=c1ccc2nc3c(O)cc(N4CCN(CCO)CC4)cc3oc-2c1 [Compound A-15]", 4.87],
  ["CN1CCN(c2cc(O)c3nc4ccc(=[N+](C)C)cc-4oc3c2)CC1.Cl.[Cl-] [Compound A-14]", 4.94],
  ["CCCC[N+](CCCC)=c1ccc2nc3ccc(N(CC)CC)cc3oc-2c1.[Cl-] [Compound A-6]", 2.92],
  ["CCCC[N+](CCCC)=c1ccc2nc3ccc(N(C)C)cc3oc-2c1.[O-][Cl+3]([O-])([O-])[O-] [Compound A-7]", 2.61]
]}
